# Experiment: gradient 5% acetonitrile 3 min, to 50% in 2 min, to 85% in 15 min, held 3 min, 100 µL/min
# Protocol conditions: column: Zorbax Extend-C18 2.1 x 50 mm; eluents: water / acetonitrile, 0.1% formic acid
Documented RP-LC retention time across a set of compounds
Hi! Could you send only the number? It should be in s, unit omitted.

Example entries and their recorded answers appear below.
{"columns": ["Compound", "Test result"],
 "data": [
  ["O=C(Nc1cccc(Cl)c1)C1CCN(S(=O)(=O)c2cc(-c3noc(C4CC4)n3)cs2)CC1", 1100],
  ["O=C(c1ccco1)N1CCCn2nc(-c3ccncc3)cc2C1", 560],
  ["O=C(C1CCN(S(=O)(=O)N2CCCC2)CC1)N1CCN(Cc2noc3ccccc23)CC1", 671]
]}

Item Cc1sc(-c2ccn[nH]2)cc1NC(=O)CCc1ccccc1 has what recorded RP-LC retention time?
966

# iterate: COc1cc(NC(=O)N2CCN(c3ccc(=O)n(-c4ccc(C)cc4)n3)CC2)cc(OC)c1OC
749

# iterate: CC(C)CNC(=O)c1ccc(CN2CCN(Cc3ccccc3)C(=O)C2=O)cc1
721

# iterate: COCCc1noc([C@@H]2CN(Cc3ccc4[nH]ccc4c3)C[C@H]2CO)n1
592

# iterate: Cc1ccccc1NC(=O)N1CCCC1c1nc(-c2cccc(Cl)c2)no1 (centres undefined)
1050

# iterate: CCCC(=O)N1CCc2c([nH]c3ccccc23)C1c1ccc(C)cc1 (centres undefined)
1150

----------
# Experiment: gradient 5% acetonitrile 3 min, to 50% in 2 min, to 85% in 15 min, held 3 min, 100 µL/min
# Protocol conditions: column: Zorbax Extend-C18 2.1 x 50 mm; eluents: water / acetonitrile, 0.1% formic acid
Please respond with fulfilled when measured RP-LC retention time is strictly beneath 800 s, and with not fulfilled in all other cases.

Please review the following examples before continuing.
{"columns": ["Compound", "Group"],
 "data": [
  ["CC(C)(NC(=O)C1CCCO1)c1nc2c(c(C(N)=O)n1)OCO2 (centres undefined)", "fulfilled"],
  ["COCCN1C(=O)[C@H]2CN(Cc3ccc(C)cc3)C[C@H]2C1=O", "fulfilled"],
  ["CC(C)(C)n1c(=O)c2ccc(F)cc2n1CC(=O)N1CCN(c2ccccc2)CC1", "not fulfilled"],
  ["COc1ccccc1-c1noc(Cn2c(=O)n(Cc3ccccc3Cl)c(=O)c3sccc32)n1", "not fulfilled"],
  ["CCn1cc(CCNC(=O)c2ccc(Br)cc2)c2cccnc21", "fulfilled"],
  ["CN1C(=O)c2cc(C(=O)NCCN3CCCC3)nn2CC1(C)C(=O)NCc1ccc(F)cc1 (centres undefined)", "fulfilled"],
  ["COc1cccc(N2CCCn3c2nc2c3c(=O)n(CC(=O)O)c(=O)n2C)c1", "fulfilled"],
  ["CCn1c(=O)sc2cc(S(=O)(=O)N3CCC(C(=O)Nc4ccccc4F)CC3)ccc21", "not fulfilled"],
  ["CN(CCc1noc(COc2cccc(C(F)(F)F)c2)n1)C(=O)c1ccco1", "not fulfilled"],
  ["Cc1ccc(Nc2c(-c3cccc(O)c3)nc3cnccn23)cc1Cl", "not fulfilled"]
]}

Is RP-LC retention time of O=C(c1csc(N2CCN(c3ccc(F)cc3)CC2)n1)N1CCOCC1 strictly below 800 s?
not fulfilled

# iterate: CC(C)(C)c1ccc(O)c(NC(=O)c2cn(-c3ccc(S(=O)(=O)N4CCCCC4)cc3)cn2)c1
not fulfilled

# iterate: COc1cccc(-c2nc(-c3ccc4c(c3)nc(C)c(=O)n4C)no2)c1
not fulfilled

# iterate: COc1c(C=O)c2c(c(OC)c1OC)-c1ccc(OC)c(=O)cc1[C@@H](NC(C)=O)CC2
fulfilled

# iterate: C=CCN1C(=O)COc2ccc(-c3csc(NC(=O)c4ccccc4)n3)cc21
not fulfilled
